pKi: −log10 of the molar value.
pKi for Histamine H3 receptor (Rattus norvegicus, UniProt Q9QYN8) - collated from the literature.
If the reported pKi equals or exceeds 8, assign true (1). If not, assign false (0).

molecule	labelClass
C[C@@H]1CCCN1CCc1cc2cc(Nc3ccc(C#N)cc3)ccc2o1	true (1)
CNCCCC(c1ccccc1)c1ccc(OCCN2CCCC2)cc1 (centres undefined)	true (1)
CN(C)CCCOc1ccc(CCNC(=O)c2cc(Br)c[nH]2)cc1Br	false (0)
CC1CC(=O)NN=C1c1ccc(OCCCN2CCCCC2)cc1 (racemic)	false (0)
COc1ccc(C(=O)N[C@H](C)C(=O)N2CCN(CCCOc3ccc(-c4noc(CC5CCCC5)n4)c(F)c3)CC2)cc1OC	true (1)
CNCCCN(c1ccccc1)c1ccc(OCCN2CCCC2)cc1	true (1)
C[C@@H](NC(=O)c1ccco1)C(=O)N1CCCN(CCCOc2ccc(-c3noc(-c4ccccc4)n3)c(F)c2)CC1	true (1)
C[C@H]1CCCN1CCCOc1ccc(C2=NNC(=O)CC2)cc1	false (0)
C[C@]12CC[C@@H]3c4ccc(OCCCN5CCCC5)cc4CC[C@H]3[C@@H]1CC[C@@H]2N1CCCC1	true (1)
C[C@]12CC[C@@H]3c4ccc(OCCCN5CCCCCC5)cc4CC[C@H]3[C@@H]1CC[C@@H]2N1CCCC1	true (1)
CCN(CC)C(=O)c1ccc(-c2ccc(OCCCNC(C)C)cc2)cc1	false (0)
c1ccc(-c2ccc(Cc3noc(CCc4c[nH]cn4)n3)cc2)cc1	false (0)
CC(C)CCc1nc(-c2ccc(OCCCN3CCCN(C(=O)[C@@H](C)NC(=O)c4ccco4)CC3)cc2F)no1	true (1)

---

pKi: −log10 of the molar value.
pKi for Histamine H3 receptor (Rattus norvegicus, UniProt Q9QYN8) - collated from the literature.
measurementType: pKi

compound	measurementType	measuredNumber
N[C@H](Cc1cccc2ccccc12)C(=O)N1CCN(CCCOc2ccc(C(=O)C3CC3)cc2)CC1	pKi	6.67
CCCC[C@H](c1ccc(-c2ccc(CN3CCCCC3)cc2)cc1)N1CCCC[C@@H]1C	pKi	7.58
CS(=O)(=O)CCOc1ccc2c(c1)CCC1(CCN(C3CCC3)CC1)O2	pKi	6.80
C[C@H](COc1ccc(-c2cn[nH]c(=O)c2)cc1)CN1CCCCC1	pKi	7.47
OC[C@@H]1CCN(CCC#Cc2c3c(nc4ccccc24)CCCCC3)C1	pKi	6.21
CCOC(=O)N1CCN(CCCOc2ccc(C(=O)/C=C/c3ccc(OC)cc3)cc2)CC1	pKi	8.14
C[C@@H](NC(=O)c1ccco1)C(=O)N1CCN(CCCOc2ccc(-c3noc(-c4ccccc4)n3)c(F)c2)CC1 (stereo in doubt; 13q)	pKi	7.89
O=C(c1ccc(-c2ccc(OCCCN3CCCC3)cc2)cc1)N1CCCC1	pKi	8.18
CC(C)n1ncc(-c2ccc(OCCCN3CCC[C@H]3C)cc2)cc1=O	pKi	8.15

---

Ki for Histamine H3 receptor (Rattus norvegicus) - collated from the literature.

compound	Ki
O=C1c2ccc(-c3ccc(F)cc3F)cc2CCN1CCN1CCCC1	153 nM
N[C@H](Cc1ccc(F)cc1)C(=O)N1CCN(CCCOc2ccc(C(=O)C3CC3)cc2)CC1	29.5 nM
C[C@@H]1CCCN1CCCOc1ccc(-c2ccn(C)c(=O)c2)cc1	12 nM
C[C@@H](NC(=O)c1ccc(Cl)cc1)C(=O)N1CCCN(CCCOc2ccc(-c3noc(CC4CCCC4)n3)c(F)c2)CC1	5.2 nM
CC[C@H](N)C(=O)N1CCN(CCCOc2ccc(C(=O)C3CC3)cc2)CC1	2.51 nM
CCCCC(c1ccc(-c2ccc(C)cc2)cc1)N1CCCCC1 (racemic)	43700 nM
N#CC(C#N)=C1N(CCN2CCCCC2)CCN1CCN1CCCCC1	55 nM
CC(C)NCCCOc1ccc(-c2ccc(C(=O)N3CCOCC3)cc2)cc1	129 nM
C[C@@H](COc1ccc(-c2cn[nH]c(=O)c2)cc1)CN1CCC[C@H]1C	43 nM
CCCCCC(=O)c1ccc(OCCCN2CCN(C(=O)[C@@H](N)C(C)C)CC2)cc1	79.4 nM
C(#Cc1c2c(nc3ccccc13)CCCCC2)CCN1CCCC1	646 nM
N[C@H](Cc1cc2ccccc2s1)C(=O)N1CCN(CCCOc2ccc(C(=O)C3CC3)cc2)CC1	288 nM
C[C@H]1CCCN1CCCOc1ccc2c(c1)CC[C@H]1[C@@H]3[C@H](C(=O)N4CCCC4)CC(=O)[C@@]3(C)CC[C@H]21	9 nM
Cn1nc(-c2ccc(OCCN3CCCCC3)cc2)c2ccccc2c1=O	> 1000 nM
CS(=O)(=O)N1CCc2ccc(OCCCN3CCCCC3)cc2CC1	38.1 nM
CN1N=C(c2ccc(OCCCN3CCCCC3)cc2)C2CCCC2C1=O (stereo not given)	9.4 nM
N#Cc1cccc(-c2ccc3c(c2)CCN(CCN2CCCC2)C3=O)c1	73 nM
CC1CC(=O)NN=C1c1ccc(OCCCN2CCC[C@H]2C)cc1 (stereo in doubt; 19a)	29 nM
CCCCCC(=O)c1ccc(OCCCN2CCN(C(=O)[C@H](CC(C)C)NC(=O)OC(C)(C)C)CC2)cc1	112 nM
CCOC(=O)N1CCN(CCCOc2ccc(C(=O)CC)cc2)CC1	5.37 nM

---

pKi for Histamine H3 receptor (Rattus norvegicus, UniProt Q9QYN8) - collated from the literature.
pKi: −log10 of the molar value.

molecule	valueRelationSign	pKi
CC1CCCN1CCCOc1ccc2c(c1)CC[C@@H]1[C@@H]2CC[C@]2(C)[C@@H](N3CCCC3)CC[C@@H]12 (mixture of isomers)	=	8.44
CC(C)N1N=C(c2ccc(OCCCN3CCC[C@H]3C)cc2)CCC1=O	=	7.20
C[C@@H]1CCCN1CCCOc1ccc(-c2cn(C)c(=O)c3ccccc23)cc1	=	8.62
CCCCCC(=O)c1ccc(OCCCN2CCN(C(=O)c3ccc(C)s3)CC2)cc1	=	7.80
CCOC(=O)N1CCN(CCCOc2ccc(C(=O)/C=C/c3cccnc3)cc2)CC1	=	8.20
CN(C)CCCOc1ccc(CN2CCCCC2)cc1	=	7.35
Cn1nc(-c2ccc(OC3CCNCC3)cc2)ccc1=O	<	6.00
N[C@H](Cc1c[nH]cn1)C(=O)N1CCN(CCCOc2ccc(C(=O)C3CC3)cc2)CC1	=	8.34
CCCCCC(=O)c1ccc(OCCCN2CCN(C(=O)[C@H](NC(=O)OC(C)(C)C)C(C)C)CC2)cc1	=	7.83

---

pKi: −log10 of the molar value.
pKi for Histamine H3 receptor (Rattus norvegicus, UniProt Q9QYN8) - collated from the literature.
If the reported pKi equals or exceeds 8, assign criterion met. If not, assign criterion not met.

compound	labelClass
C[C@@H]1CCCN1CCc1cc2cc(CNc3cncnc3)ccc2o1	criterion met
CCc1cnc(Nc2ccc3oc(CCN4CCC[C@H]4C)cc3c2)nc1	criterion met
C[C@@H]1CCCN1CCc1ccc(-c2ccc(=O)n(-c3ccccn3)n2)cc1	criterion not met
Cn1nc(-c2ccc(C(=O)N3CCN4CCC[C@H]4C3)cc2)ccc1=O	criterion not met
C[C@@H]1CCCN1CCCOc1ccc(C2=NNC(=O)CC2(C)C)cc1	criterion not met
C[C@@H]1CCCN1CCc1ccc(-c2ccc(S(=O)(=O)CC3CCCCO3)cc2)cc1 (stereo not given in full)	criterion met
O=S(=O)(C1CC1)N1CCC(Oc2ccc3c(c2)CCC2(CCN(C4CCC4)CC2)O3)CC1	criterion not met
CCCCCC(=O)c1ccc(OCCCN2CCN(C(=O)c3cnccn3)CC2)cc1	criterion not met

---

pKi for Histamine H3 receptor (Rattus norvegicus) - collated from the literature.
pKi: −log10 of the molar value.
If the reported pKi equals or exceeds 8, assign 1. If not, assign 0.

lineNotation	labelClass
C[C@@H]1CCCN1CCc1ccc(C2=CC[C@H]3CN(C(=O)c4cccnc4)C[C@@H]23)cc1	1
C[C@@H]1CCCN1CCCOc1ccc(-c2n[nH]c(=O)cc2-c2ccccn2)cc1	0
C[C@H](COc1ccc(-c2cn[nH]c(=O)c2)cc1)CN1CCC[C@H]1C	1

---

pKi: −log10 of the molar value.
pKi for Histamine H3 receptor (Rattus norvegicus) - collated from the literature.
measurementType: pKi

molecule	measurementType	measuredNumber
O=C(c1ccc(Oc2ccccc2)nc1)N1CCCN(C2CCC2)CC1	pKi	7.82
Clc1ccc(-c2noc(CCCCN3CCOCC3)n2)c(Cl)c1	pKi	7.63
CCN(CC)CCc1ccc2cc(-c3ccc(C#N)cc3)ccc2c1	pKi	7.90
CN1CCc2ccc(OCCCN3CCCC3)cc2C1=O	pKi	6.77
Cc1cc(OCCCN2CCCCC2)ccc1C1=NNC(=O)C2CC12 (racemic)	pKi	6.86
C[C@@H](COc1ccc(-c2ccc(=O)n(C)n2)cc1)CN1CCC[C@H]1C	pKi	7.28

---

Ki for Histamine H3 receptor (Rattus norvegicus) - collated from the literature.

lineNotation	assayTarget	Ki (nM)
CN1CCC[C@H]2[C@@H]3CC[C@H]4C[C@@H](OC(=O)CCN5CCCC5)CC[C@]4(C)[C@H]3CC[C@@]21C	Histamine H3 receptor (Rattus norvegicus)	39
CC1CCN(C(=O)c2ccc(-c3ccc(OCCCN4CC[C@@H](N(C)C)C4)cc3)cc2)CC1	Histamine H3 receptor (Rattus norvegicus)	29.5
CC1(C)CC(c2ccc(OC3CCN(C4CCC4)CC3)cc2)=NNC1=O	Histamine H3 receptor (Rattus norvegicus)	4.4
CN(C)CCCOc1ccc(CN(C)C)cc1	Histamine H3 receptor (Rattus norvegicus)	255
C[C@@H]1CCCN1CCCOc1ccc(C2=NN(c3ccccc3)C(=O)CC2)cc1	Histamine H3 receptor (Rattus norvegicus)	16
